Where do the numbers come from? From ChEMBL document CHEMBL1201862.

test system: NCI-H23; test: NCI tumour cell line growth inhibition, 48 h
The source made the active and inactive calls. No stated cut-off is given here; in the data, active = GI50 up to about 1.1 µM and inactive = higher.
The reply should be one of these categories: t = active, f = inactive

Query: Test call for this compound, please: `CC1=CCC[C@]2(C)C1=CC(=O)O[C@H]2c1ccoc1`
Response: f

Query: Test call for this compound, please: `Cc1c(C)c(CC(=O)N2CC2)c(C)c(C)c1CC(=O)N1CC1`
Response: f

Query: Test call for this compound, please: CC(=O)OC(C)c1cc2c(s1)C(=O)c1ccsc1C2=O (stereo unspecified)
Response: t

Query: Test call for this compound, please: `Nc1nc(N)c2cc(S(=O)(=O)c3ccc4ccccc4c3)ccc2n1`
Response: f

Query: Test call for this compound, please: `O=C(O)C12CC3CC(CC(F)(C3)C1)C2`
Response: f

Query: Test call for this compound, please: `CCN(CC)C(=S)SC1C(=O)NC(=O)NC1=O`
Response: f

----------
system: COLO 205; experiment: NCI tumour cell line growth inhibition, 48 h
Calls of active or inactive are those of the source. No stated cut-off is given here; in the data, active = GI50 up to about 1.1 µM and inactive = higher.
The reply should be one of these categories: active, inactive

# compound, group_label
measured = [
    ("CCOC(=O)CN(CC)C(=O)NC12CC3CC(CC(C3)C1)C2", "inactive"),
]

Query: Test call for this compound, please: `CCN(CC)C(=S)SC1C(=O)NC(=O)NC1=O`
Response: inactive

Query: Test call for this compound, please: N#Cc1cc2c(n(C3OC(CO)C(O)C(O)C3O)c1=S)CCC2 (stereo not drawn)
Response: inactive

Query: Test call for this compound, please: COc1ccc2c(c1)CCCC1C3=NCCC3(C)CSC21 (stereo not drawn)
Response: inactive

Query: Test call for this compound, please: C=C1C(=O)OC2/C=C(\COC(C)=O)CCC(OC(C)=O)C3=CC(OC3=O)C12 (stereo not drawn)
Response: inactive

Query: Test call for this compound, please: `CCOC(=O)C1(Br)S(=O)(=O)OCCOS1(=O)=O`
Response: inactive

Query: Test call for this compound, please: CNC(=O)N(C1=NCC(C)S1)c1ccc(C)c(C)c1 (stereo not drawn)
Response: inactive

Query: Test call for this compound, please: `O=C(Nc1ccc(Cl)cc1)C(=O)C1=C(O)c2ccccc2OC1`
Response: inactive

Query: Test call for this compound, please: `O=c1oc2ccccc2cc1-c1nnc(-c2ccccc2)s1`
Response: inactive

----------
test system: HCC 2998; assay: NCI tumour cell line growth inhibition, 48 h
Calls of active or inactive are those of the source. No stated cut-off is given here; in the data, active = GI50 up to about 1.1 µM and inactive = higher.
The reply should be one of these categories: 1 = active, 0 = inactive

Take a look at these entries with their results.
# compound, experimental_target, group_label
data = [
    ("CC(C)C(=O)N1Cc2cc(Cl)cc(Cl)c2OC(=O)c2ccccc21", "HCC 2998", 0),
    ("CC(C)(C)OC(=O)N1NC(c2ccccc2)CC1c1ccccc1 (stereo not given)", "HCC 2998", 0),
]

Query: Test call for this compound, please: `CCOc1ccc(/C=C2\NC(=S)N(/C=C3\C(=O)Oc4ccccc4C3=O)C2=O)cc1`
Response: 0

Query: Test call for this compound, please: CC(C(=O)O)C(C)(O)C(=O)O (stereo not given)
Response: 0

Query: Test call for this compound, please: `Clc1ccc2oc(CCc3ccccc3)nc2c1`
Response: 0

Query: Test call for this compound, please: `C=CCNC1=C2C[C@@H](C)C[C@@H](OC)[C@H](OC(=O)CCN(C)C)[C@H](C)/C=C(\C)[C@@H](OC(N)=O)[C@H](OC)/C=C\C=C(/C)C(=O)NC(=CC1=O)C2=O`
Response: 1

Query: Test call for this compound, please: `S=c1ssc2c3ssc(=S)c3n(Cc3ccccc3)c12`
Response: 0

Query: Test call for this compound, please: `C1CSC(=[N+]2CC[N+](=C3SCCS3)CC2)S1`
Response: 0

Query: Test call for this compound, please: `C[n+]1cn(CC(=O)c2ccccc2)c(C(N)=O)c1N`
Response: 0

Query: Test call for this compound, please: `CC(=O)/C(=C/N1CC(=O)NC1=S)C(=O)Nc1ccccc1C`
Response: 0
